Each recorded value in this set is attributed to paper PMC10914734.

TESTED_TARGET: Human CTSC (Homo sapiens, UniProt P53634)
Sequence (P53634 25-463): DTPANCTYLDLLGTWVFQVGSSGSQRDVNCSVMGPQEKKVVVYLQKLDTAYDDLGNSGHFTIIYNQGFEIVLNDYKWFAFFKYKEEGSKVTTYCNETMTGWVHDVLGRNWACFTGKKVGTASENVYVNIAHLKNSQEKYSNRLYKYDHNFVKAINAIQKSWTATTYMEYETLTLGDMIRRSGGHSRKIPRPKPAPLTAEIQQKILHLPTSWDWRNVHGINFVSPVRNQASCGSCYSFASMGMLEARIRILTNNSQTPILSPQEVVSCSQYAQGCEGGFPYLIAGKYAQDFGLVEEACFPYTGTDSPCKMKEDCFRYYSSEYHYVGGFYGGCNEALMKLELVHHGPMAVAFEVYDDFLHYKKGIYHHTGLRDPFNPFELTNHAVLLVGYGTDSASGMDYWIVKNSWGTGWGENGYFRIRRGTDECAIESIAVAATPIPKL
TEST: biochemical
SETUP_CONDITIONS: read-out: IC50, Human CTSC
MEASURED_PARAMETER: IC50
The answer should read as a number with its unit following.

IC50 measured on O=C(NCc1ccccc1)C(=O)[C@H](C[C@@H]1CCCNC1=O)NC(=O)[C@H](CC1CCCCC1)NC(=O)c1cc2ccccc2o1 [14b] = 66.2 nM

---

TEST: Pharmacokinetics in mice
Format: in vivo
SETUP_CONDITIONS: CD-1, mouse, plasma, po, 14b, p.o. (20 mg/kg), read-out: MRTINF_obs
MEASURED_PARAMETER: MRT inf (h)
Express your answer in h, writing the number without its unit.

MRT inf measured on O=C(NCc1ccccc1)C(=O)[C@H](C[C@@H]1CCCNC1=O)NC(=O)[C@H](CC1CCCCC1)NC(=O)c1cc2ccccc2o1 [14b] = 2.11
